tgt: Baculoviral IAP repeat-containing protein 2 (Homo sapiens) (UniProt Q13490)
Sequence (Q13490 whole entry, looked up): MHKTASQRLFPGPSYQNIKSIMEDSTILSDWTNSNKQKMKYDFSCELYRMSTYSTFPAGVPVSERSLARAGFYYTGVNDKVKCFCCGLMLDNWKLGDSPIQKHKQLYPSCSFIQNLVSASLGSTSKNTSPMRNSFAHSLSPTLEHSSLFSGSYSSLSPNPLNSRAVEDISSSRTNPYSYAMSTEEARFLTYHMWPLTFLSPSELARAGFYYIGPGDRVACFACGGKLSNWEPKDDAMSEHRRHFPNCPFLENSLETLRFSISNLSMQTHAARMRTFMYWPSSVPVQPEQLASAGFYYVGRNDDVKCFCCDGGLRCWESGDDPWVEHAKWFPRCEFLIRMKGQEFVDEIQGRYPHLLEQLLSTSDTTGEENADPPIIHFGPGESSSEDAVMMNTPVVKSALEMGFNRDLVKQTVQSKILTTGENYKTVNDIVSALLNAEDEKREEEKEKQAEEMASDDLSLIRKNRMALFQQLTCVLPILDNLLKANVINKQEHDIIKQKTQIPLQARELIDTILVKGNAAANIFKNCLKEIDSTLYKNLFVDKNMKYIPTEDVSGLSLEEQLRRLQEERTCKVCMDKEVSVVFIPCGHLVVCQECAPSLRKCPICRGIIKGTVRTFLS
method.summary: SMAC mimetics displacing peptide from cIAP1 – biochemical, SAR follow-up (AID 1508599)
condition.set: cIAP1 BIR3 / rhodamine-SMAC peptide fluorescence polarization
The source made the active and inactive calls.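 The calls were made as follows: active = IC50 under 30000 nM, about half a log past the top tested dose; inactive = the rest.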
// reported IC50 for each item listed
reported.metric: IC50

| compound | tgt | reported.metric | experimental.result |
| --- | --- | --- | --- |
| CN[C@@H](C)C(=O)N[C@H]1CCO[C@H]2CC(C)(C)C(C(=O)Nc3ccccc3SSc3ccccc3NC(=O)C3N4C(=O)[C@@H](NC(=O)[C@H](C)NC)CCO[C@H]4CC3(C)C)N2C1=O (some centres undefined) | Baculoviral IAP repeat-containing protein 2 (Homo sapiens) (UniProt Q13490) | IC50 | 505 nM |
| CN[C@@H](C)C(=O)N[C@H]1CCO[C@H]2c3ccccc3C(C(=O)N[C@@H]3CCCc4ccccc43)N2C1=O (some centres undefined) | Baculoviral IAP repeat-containing protein 2 (Homo sapiens) (UniProt Q13490) | IC50 | 8440 nM |
| CN[C@@H](C)C(=O)N[C@H]1CCS(=O)(=O)[C@H]2CC[C@H](C(=O)N[C@@H]3CCCc4ccccc43)N2C1=O | Baculoviral IAP repeat-containing protein 2 (Homo sapiens) (UniProt Q13490) | IC50 | > 100000 nM (inactive) |
| CN[C@@H](C)C(=O)N[C@@H]1C(=O)N2C(C(=O)NC(c3ccccc3)c3ccccc3)CC[C@@H]2O[C@@H]1C (some centres undefined) | Baculoviral IAP repeat-containing protein 2 (Homo sapiens) (UniProt Q13490) | IC50 | 235 nM |
| CN[C@@H](C)C(=O)N[C@@H]1C(=O)N2C(C(=O)Nc3cccc4ccccc34)CC[C@@H]2O[C@@H]1C (some centres undefined) | Baculoviral IAP repeat-containing protein 2 (Homo sapiens) (UniProt Q13490) | IC50 | 78 nM |
| CN[C@@H](C)C(=O)N[C@H]1CCS[C@H]2CCC(C(=O)N[C@H]3CCCc4ccccc43)N2C1=O (some centres undefined) | Baculoviral IAP repeat-containing protein 2 (Homo sapiens) (UniProt Q13490) | IC50 | 157 nM |
| CN[C@@H](C)C(=O)N[C@H]1Cc2cc(O)c(O)cc2[C@H]2CC(C)(C)C(C(=O)N[C@@H]3CCCc4ccccc43)N2C1=O (some centres undefined) | Baculoviral IAP repeat-containing protein 2 (Homo sapiens) (UniProt Q13490) | IC50 | > 100000 nM (inactive) |
| CN[C@@H](C)C(=O)N[C@H]1CCO[C@H]2CC[C@@H](C(=O)N[C@@H]3CCCc4ccccc43)N2C1=O | Baculoviral IAP repeat-containing protein 2 (Homo sapiens) (UniProt Q13490) | IC50 | 740 nM |
| CC(=O)N(C)[C@@H](C)C(=O)N[C@H]1CCCN(C(C)=O)[C@H]2CCC(C(=O)Nc3cccc4ccccc34)N2C1=O (some centres undefined) | Baculoviral IAP repeat-containing protein 2 (Homo sapiens) (UniProt Q13490) | IC50 | 6850 nM |
| CN[C@@H](C)C(=O)N[C@H]1CCO[C@H]2CC[C@H](C(=O)N[C@@H]3CCOc4ccccc43)N2C1=O | Baculoviral IAP repeat-containing protein 2 (Homo sapiens) (UniProt Q13490) | IC50 | > 100000 nM (inactive) |
| CN[C@@H](C)C(=O)N[C@H]1CCCN[C@H]2CCC(C(=O)N[C@H]3CCCc4ccccc43)N2C1=O (some centres undefined) | Baculoviral IAP repeat-containing protein 2 (Homo sapiens) (UniProt Q13490) | IC50 | 789 nM |
| CN[C@@H](C)C(=O)N[C@H]1CCO[C@H]2CC3(CCCC3)C(C(=O)N[C@@H]3CCCc4ccccc43)N2C1=O (some centres undefined) | Baculoviral IAP repeat-containing protein 2 (Homo sapiens) (UniProt Q13490) | IC50 | 1350 nM |
| CN[C@@H](C)C(=O)N[C@H]1CCO[C@H]2CC[C@H](C(=O)n3ccc4ccccc43)N2C1=O | Baculoviral IAP repeat-containing protein 2 (Homo sapiens) (UniProt Q13490) | IC50 | 147 nM |
| CN[C@@H](C)C(=O)N[C@H]1CCO[C@H]2CC(C)(C)[C@@H](C(=O)N[C@@H]3CCCc4ccccc43)N2C1=O | Baculoviral IAP repeat-containing protein 2 (Homo sapiens) (UniProt Q13490) | IC50 | 210 nM |
| CN[C@@H](C)C(=O)N[C@H]1CCS[C@H]2CC[C@@H](C(=O)N[C@@H]3CCCc4ccccc43)N2C1=O | Baculoviral IAP repeat-containing protein 2 (Homo sapiens) (UniProt Q13490) | IC50 | 140 nM |
| CN[C@@H](C)C(=O)N[C@H]1CCS(=O)(=O)[C@H]2CC[C@@H](C(=O)N[C@@H]3CCCc4ccccc43)N2C1=O | Baculoviral IAP repeat-containing protein 2 (Homo sapiens) (UniProt Q13490) | IC50 | 11600 nM |
| CN[C@@H](C)C(=O)N[C@H]1CCS(=O)(=O)[C@H]2CC(C)(C)[C@@H](C(=O)N[C@@H]3CCCc4ccccc43)N2C1=O | Baculoviral IAP repeat-containing protein 2 (Homo sapiens) (UniProt Q13490) | IC50 | > 100000 nM (inactive) |
| CN[C@@H](C)C(=O)N[C@H]1CCCN[C@H]2CCC(C(=O)Nc3cccc4ccccc34)N2C1=O (some centres undefined) | Baculoviral IAP repeat-containing protein 2 (Homo sapiens) (UniProt Q13490) | IC50 | 21100 nM |
| CN[C@@H](C)C(=O)N[C@H]1CCO[C@H]2CC[C@@H](C(=O)N[C@@H]3CCOc4ccccc43)N2C1=O | Baculoviral IAP repeat-containing protein 2 (Homo sapiens) (UniProt Q13490) | IC50 | 1300 nM |
| CN[C@@H](C)C(=O)N[C@H]1CCO[C@H]2CCC(C(=O)N[C@H]3CCCc4ccccc43)N2C1=O (some centres undefined) | Baculoviral IAP repeat-containing protein 2 (Homo sapiens) (UniProt Q13490) | IC50 | 72 nM |
| CN[C@@H](C)C(=O)N[C@H]1CCO[C@H]2CC[C@@H](C(=O)Nc3cccc4ccccc34)N2C1=O | Baculoviral IAP repeat-containing protein 2 (Homo sapiens) (UniProt Q13490) | IC50 | 47 nM |
| CN[C@@H](C)C(=O)N[C@H]1CCO[C@H]2CCC(C(=O)NC(c3ccccc3)c3ccccc3)N2C1=O (some centres undefined) | Baculoviral IAP repeat-containing protein 2 (Homo sapiens) (UniProt Q13490) | IC50 | 294 nM |
| CN[C@@H](C)C(=O)N[C@H]1CCO[C@H]2CC[C@@H](C(=O)n3ccc4ccccc43)N2C1=O | Baculoviral IAP repeat-containing protein 2 (Homo sapiens) (UniProt Q13490) | IC50 | 1210 nM |
| CN[C@@H](C)C(=O)N[C@H]1Cc2c([nH]c3ccccc23)[C@H]2CCC(C(=O)N[C@@H]3CCCc4ccccc43)N2C1=O (some centres undefined) | Baculoviral IAP repeat-containing protein 2 (Homo sapiens) (UniProt Q13490) | IC50 | 93 nM |
| CN[C@@H](C)C(=O)N[C@H]1CCS[C@H]2CC[C@H](C(=O)N[C@@H]3CCCc4ccccc43)N2C1=O | Baculoviral IAP repeat-containing protein 2 (Homo sapiens) (UniProt Q13490) | IC50 | 1000 nM |
| CN[C@@H](C)C(=O)N[C@H]1Cc2cccc(O)c2[C@H]2CC(C)(C)C(C(=O)N[C@@H]3CCCc4ccccc43)N2C1=O (some centres undefined) | Baculoviral IAP repeat-containing protein 2 (Homo sapiens) (UniProt Q13490) | IC50 | 14900 nM |
| CN[C@@H](C)C(=O)N[C@H]1CCN[C@H]2CCC(C(=O)N[C@@H]3CCCc4ccccc43)N2C1=O (some centres undefined) | Baculoviral IAP repeat-containing protein 2 (Homo sapiens) (UniProt Q13490) | IC50 | 113 nM |
| CN[C@@H](C)C(=O)N[C@H]1CCO[C@H]2CCC(C(=O)Nc3cccc4ccccc34)N2C1=O (some centres undefined) | Baculoviral IAP repeat-containing protein 2 (Homo sapiens) (UniProt Q13490) | IC50 | 263 nM |
